Assay: Pharmacokinetic studies of certain compounds in female Balb/c mice (Example 5)
Format: in vivo
Settings: mouse, plasma, I-2 PO 30 mg/kg
Procedure: Pharmacokinetic studies were performed using Balb/c mice, 15-20 g, 6-9 weeks, female, N=9, purchased from Jihui Laboratory Animal Co. LTD. For compound I-29, Balb/c mice, 19-21 g, 9-11 weeks, female, N=9, were used. […] Plasma samples were analyzed using LC-MS using a calibration curve of known concentrations. The results of these studies are summarized in Tables 11-21 below and in FIGS. 2-8. […] BQL=below quantifiable limit for compound in female Balb/c mouse plasma samples. […]
Observation type: Cmax (ng/mL)
Answers are plain numbers, in ng/mL.

Item under review: `CC(C)Cc1sc(Nc2ncc(-c3cccs3)cc2C(=O)O)nc1C1=CCCCC1` . Reported Cmax? 2330
